meta.source: patent US20140287029A1

# Target: T1, HLA-A2 molecules on T2 cells (human)
# T1 construct: whole, on cells; MHC class I molecule on the surface of T2 cells
# Procedure Details: T2 cell-binding assay, flow cytometry of HLA-A2 on T2 cells, peptide 25 µg/mL
Exercise: state measured fold increase compared with the negative control (CAP-7 peptide) for each of the binders provided.
One number for each entry, in fold.

State recorded fold increase compared with the negative control (CAP-7 peptide) for all listed binders.
1. IVFEHVVFSV (Synthetic peptide, purity >95%; positions counted on the NGEP long form (L)) [NGEP peptide P855 (L)]
2. SLSYTNPAV (Synthetic control peptide, purity >95%; also called positive control peptide) [MUC-1 (P1240) peptide]
3. GLGGPPLPTL (Synthetic peptide, purity >95%; positions counted on the NGEP short form (S)) [NGEP peptide P10 (S)]

2.3
5.1
2.4

For every item below, please supply its fold increase compared with the negative control (CAP-7 peptide).
1. VLLEVVPDV (Synthetic peptide, purity >95%; positions counted on the NGEP long form (L)) [NGEP peptide P215 (L)]
2. LLAIRLWAV (Synthetic peptide, purity >95%; positions counted on the NGEP long form (L)) [NGEP peptide P846 (L)]
3. ALLSASWAV (Synthetic peptide, purity >95%; positions counted on the NGEP long form (L)) [NGEP peptide P170 (L)]
4. GLFDEYLEMV (Synthetic peptide, purity >95%; positions counted on the NGEP long form (L); also called NGEP-P703) [NGEP peptide P703 (L)]
5. LVWEEDLKL (Synthetic peptide, purity >95%; positions counted on the NGEP short form (S)) [NGEP peptide P113 (S)]
6. FLDNIRAAGL (Synthetic peptide, purity >95%; also called P143 (5)) [NGEP peptide P143]
7. WLLPAAVVGT (Synthetic peptide, purity >95%; positions counted on the NGEP long form (L)) [NGEP peptide P356 (L)]
8. ILFEILAKT (Synthetic peptide, purity >95%; positions counted on the NGEP long form (L)) [NGEP peptide P258 (L)]

1: 5.2; 2: 1.4; 3: 2.1; 4: 6.4; 5: 4.1; 6: 2.3; 7: 4; 8: 3.1
